As shown below, each of these compounds has a reported IC50 value.
assayedSystem: human CRTH2 (Homo sapiens, UniProt Q9Y5Y4)
Construct: expressed in transfected cells; host or cells: L1.2 cells, pEAK expression vector, puromycin-selected
Sequence (Q9Y5Y4 whole entry): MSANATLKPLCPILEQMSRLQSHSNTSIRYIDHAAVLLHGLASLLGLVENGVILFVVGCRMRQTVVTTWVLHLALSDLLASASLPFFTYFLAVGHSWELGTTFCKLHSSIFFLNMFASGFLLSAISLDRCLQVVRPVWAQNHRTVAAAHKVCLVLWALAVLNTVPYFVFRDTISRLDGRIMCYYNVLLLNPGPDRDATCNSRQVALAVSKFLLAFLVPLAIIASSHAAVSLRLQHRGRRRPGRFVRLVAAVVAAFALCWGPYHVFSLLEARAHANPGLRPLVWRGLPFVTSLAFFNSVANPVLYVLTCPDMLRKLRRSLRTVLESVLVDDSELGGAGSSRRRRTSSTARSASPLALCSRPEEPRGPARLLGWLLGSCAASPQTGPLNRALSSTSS
experiment: Measurement of Ca2+ mobilization in the human CRTH2-transfected L1.2 cell line (Assay 1)
Type: cell-based
runParameters: PGD2-induced Ca2+ mobilization in CRTH2-transfected L1.2 cells; compounds as yielded by solid phase synthesis, purity about 40 to 90%; read-out: Activity class

CN(CC(=O)NC1CCCC1)c1nc(Cc2ccc(NC(=O)c3cc4ccccc4[nH]3)cc2)nc(Cl)c1CC(=O)O [Example 1-26] :: < 10 nM

Enquiry: Requested field: IC50. Item: CN(CC(=O)NC1CCCC1)c1nc(Cc2ccc(NC(=O)c3cccc4ccccc34)cc2)nc(Cl)c1CC(=O)O [Example 1-22]
Return: 10 to 100 nM

Enquiry: For CC(c1ccc(NC(=O)c2ccc(Cl)c(Cl)c2)cc1)c1ncc(CC(=O)O)c(N(C)C)n1 (stereo not shown) [Example 2-21] then?
Return: < 10 nM

Enquiry: For CN(C)c1nc(Cc2ccc(NC(=O)/C=C/c3ccccc3)cc2)nc(N2CCOCC2)c1CC(=O)O [Example 7-21] then?
Return: 10 to 100 nM

Numbers sourced from patent US7960393B2.
